Assay: Confirmatory screen NINDS Rhodamine qHTS for Zika virus inhibitors (AID 1347161); further: nearly all actives have a fitted effect of over 60% in size
Details: purified enzyme assay, Rhodamine110 substrate fluorescence, 15 min; series mostly up to 114 µM
Inconclusive results are not listed. Active and inactive are the calls of the source. The call rests on the fitted dose curve; in most records, active means well fitted inhibition curve with a large enough effect; inconclusive means small, poorly fitted or top-dose-only effect; inactive means no such curve, though single readings can be large or run the other way.
Give one outcome, nothing more. List: yes for active, no for inactive

Exercise: Please indicate how the test categorized O=C(Nc1cccc(C(=O)OCc2cc(=O)n3nc(C4CC4)sc3n2)c1)c1ccc(F)cc1 .
Solution: yes

Exercise: Please indicate how the test categorized O=c1oc2ccc3ccccc3c2cc1-c1nnc(Nc2cc(C(F)(F)F)ccc2Cl)s1 .
Solution: no

Exercise: Please indicate how the test categorized CCCCc1nn(-c2ccccc2C(F)(F)F)c(=O)n1Cc1ccc(-c2ccccc2S(=O)(=O)NC(=O)c2sccc2C)cc1 .
Solution: yes

Exercise: Please indicate how the test categorized O=C(Nc1cccc(C(=O)OCc2cc(=O)n3nc(C4CC4)sc3n2)c1)c1cccc(F)c1 .
Solution: yes

Exercise: Please indicate how the test categorized Clc1nc2n[nH]nc2nc1Cl .
Solution: yes

---

Assay: qHTS for Inhibitors of Plasmodium falciparum (DD2) proliferation (AID 504314);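 further: parasite DNA measured by SYBR Green fluorescence after red cell lysis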
Conditions: P. falciparum Dd2 in erythrocytes, SYBR Green growth, 72 h; series mostly up to 6.11 µM
Inconclusive results are not listed. Calls of active or inactive are those of the source. Calls come from the whole dose curve; as a rule, active = well fitted inhibition curve with a large enough effect; inconclusive = small, poorly fitted or top-dose-only effect; inactive = flat fitted curve, though single readings scatter.
QUANTITY_MEASURED: activity, negative = inhibition

Recorded results for 5 compounds are shown here.
O=C(NC(CC1=CCCCC1)c1ccccc1)C(F)(F)F (stereo unspecified); inactive
O=c1n(-c2ccccc2)c(=O)n2n1CC[C@@H]1C(=NOC[C@@H](O)COCc3ccco3)[C@H]3O[C@H]3[C@@H](O)[C@H]12; inactive
CC(=O)C1=C(C)N(Cc2ccco2)C(=O)NC1c1ccccc1 (stereo unspecified); inactive
C[C@H]1CC[C@H]2C(=O)O[C@H](CO)CN2[C@H]1c1ccc(Br)cc1; inactive
CCN1C(=O)NC(c2ccccc2)C(C(=O)OC)=C1C (stereo unspecified); inactive

Exercise: Requested field: activity, negative = inhibition. Item: CCOC(=O)N1C2=NC(C(=O)OC)=C(C(=O)OC)[C@@H]3N(C)c4ccccc4[C@]23C[C@H]1C(=O)OC
Solution: inactive

Exercise: Requested field: activity, negative = inhibition. Item: Cc1cc2c(c(=O)o1)[C@H]1O[C@](CCCCN3C(=O)c4ccccc4C3=O)(Cc3cc(C#N)ccc31)O2
Solution: inactive

Exercise: Requested field: activity, negative = inhibition. Item: CC(C)CON=C1C[C@@H](O)[C@@H](O)[C@@H]2[C@H]3C(=O)N(Cc4ccc5c(c4)OCO5)C(=O)[C@@H]3CC[C@@H]12
Solution: inactive

Exercise: Requested field: activity, negative = inhibition. Item: COC(=O)N[C@@H](c1ccco1)C(C(C)=O)C(=O)OC (stereo partly specified)
Solution: inactive

Exercise: Requested field: activity, negative = inhibition. Item: COC1=C[C@H](C(=O)NCc2ccccn2)[C@H](C)[C@@H](c2ccccc2)CC1=O
Solution: inactive

Exercise: Requested field: activity, negative = inhibition. Item: COC(=O)CCCC1=CC2=CC(=O)C(C)(OC(=O)c3cccs3)C(=O)C2=CN1Cc1ccco1 (stereo unspecified)
Solution: inactive

Exercise: Requested field: activity, negative = inhibition. Item: CCC=CCCC(OC(=O)c1ccc(Br)cc1)C1=CCCCC1=O (stereo unspecified)
Solution: inactive

Exercise: Requested field: activity, negative = inhibition. Item: COc1ccc(-c2nc(-c3ccccc3)oc2Nc2ccccc2C)cc1
Solution: inactive

Exercise: Requested field: activity, negative = inhibition. Item: COC(=O)C1=C(C(=O)OC)[C@@H]2N(Cc3ccccc3)c3ccccc3[C@@]23C[C@@H](C(=O)OC)N(C(=O)c2cc(C)oc2C)C3=N1
Solution: inactive

Exercise: Requested field: activity, negative = inhibition. Item: COc1ccc2c(c1)CO[C@H]([C@H](O)COC(C)=O)[C@H]2C=Cc1ccccc1
Solution: inactive

Exercise: Requested field: activity, negative = inhibition. Item: COC(=O)CC=C[C@@H](C)[C@H](OC)c1c(Br)ccc2c1OCO2
Solution: inactive

Exercise: Requested field: activity, negative = inhibition. Item: CCN1C(=NCc2cc(OC)c(OC)c(OC)c2)N[C@@H](c2ccccc2)[C@H](C(=O)OC)[C@H]1C
Solution: inactive

Exercise: Requested field: activity, negative = inhibition. Item: CC(CCN1CCCc2nc(C)c(C)cc21)=NOC[C@@H](O)[C@H]1O[C@@H]2OC(C)(C)O[C@H]2[C@@H]1O
Solution: inactive

Exercise: Requested field: activity, negative = inhibition. Item: CCCCn1c(C)cc2c(c1=O)[C@H]1O[C@](c3ccsc3)(Cc3cc(OC)c(OC)cc31)O2
Solution: inactive

Exercise: Requested field: activity, negative = inhibition. Item: COC(=O)[C@@H](O)CC[C@@H](C)Cc1c(OC)c(OC)c(C)c(OC)c1OC
Solution: inactive

Exercise: Requested field: activity, negative = inhibition. Item: COC(=O)N[C@@H](c1cccs1)C(C(C)=O)C(=O)OC (stereo partly specified)
Solution: inactive

Exercise: Requested field: activity, negative = inhibition. Item: C[C@H]1C[C@@H](C)O[C@@]2(C1)C(=O)Nc1ccccc12
Solution: inactive

Exercise: Requested field: activity, negative = inhibition. Item: C#CCCCON=C1C[C@@H](O)[C@H](O)[C@H]2[C@@H]3C(=O)N(Cc4ccc5c(c4)OCO5)C(=O)[C@@H]3CC[C@H]12
Solution: inactive

Exercise: Requested field: activity, negative = inhibition. Item: CC1(C)O[C@H]2O[C@H]([C@H](O)CON=C3[C@H]4CCn5c(=O)n(-c6ccccc6)c(=O)n5[C@@H]4[C@H](O)[C@@H]4O[C@H]34)[C@H](O)[C@@H]2O1
Solution: inactive

Exercise: Requested field: activity, negative = inhibition. Item: C#CCN1C(=O)[C@@]2(CC(C)=CC[C@@H](C)O2)c2ccccc21
Solution: inactive

Exercise: Requested field: activity, negative = inhibition. Item: C=C(CO[C@@H]1C=C[C@@H](c2ccccc2)O[C@@H]1CO)c1ccccc1
Solution: inactive

Exercise: Requested field: activity, negative = inhibition. Item: CCN1C(=NCC(C)C)N[C@H](c2ccccc2)[C@H](C(=O)OC)[C@H]1C
Solution: inactive

Exercise: Requested field: activity, negative = inhibition. Item: CCN1C(=NCc2ccccc2)N[C@@H](c2ccccc2)[C@H](C(=O)OC)[C@H]1C
Solution: inactive

Exercise: Requested field: activity, negative = inhibition. Item: COC(=O)N[C@@H](c1cccc(F)c1)[C@@H](C)[N+](=O)[O-]
Solution: inactive

Entry source: PubChem BioAssay (NCATS)
